Test: qHTS Assay for Lipid Storage Modulators: COS7 Assay against Probe and Analogs
Details: COS7 lipid droplet area, BODIPY imaging, 18 h; cells loaded with 400 µM oleic acid
Results filed as inconclusive are left out.
# Lookup of reported max response keyed by entry
Report the value in % with no unit label.

>  <compound>
CCOc1ccc(CCNC(=O)C2(c3ccccc3)CC2)cc1OCC

>  <numeric-result>
2.24

$$$$
>  <compound>
O=C(NC1CCCc2c1cnn2-c1ccc(F)cc1F)C1CC1 (stereo unspecified)

>  <numeric-result>
3.35

$$$$
>  <compound>
O=C(NC1CCCc2c1cnn2-c1ccc(F)cc1F)c1ccncc1 (stereo unspecified)

>  <numeric-result>
1.34

$$$$
>  <compound>
CCOC(=O)C1CCN(C(=O)C(C)(C)NC(=O)Nc2cccc(-c3csc(C)n3)c2)CC1

>  <numeric-result>
3.3

$$$$
>  <compound>
CCOc1ccc(CCNC(=O)c2ccccn2)cc1OCC

>  <numeric-result>
1.41

$$$$

# ---- query compound ----
Any idea what max response was measured for `CCn1c(C(=O)NCCc2ccc(OC)c(OC)c2)cc2sccc21` ?
3.82
